Values from the nanobody polyreactivity screen of Harvey et al. (2022)

# PROTOCOL_TEXT: yeast display, Sf9 membrane polyspecificity reagent, FACS + sequencing; frameworks hold sequencing errors
METRIC: polyreactivity (PSR sort gate)

Here is how some sequences turned out for polyreactivity (PSR sort gate).
- POLYMER_SEQUENCE: "QVQLVESGGGLVQAGGSLRLSCAASGIIFAWYVMGWYRQAPGKERELVAAITQSGGSTFYADSVKGRFTISRDNAKNTVYLQMNSLKPEDTAVYYCNTEDFFNVPEMDSWGQGTQVTVSS"
  polyreactivity (PSR sort gate): "low polyreactivity"
- POLYMER_SEQUENCE: "QVQLVESGGGLVQAGGRLRLSCAASGRTYYTYAMGWYRQAPGKERELVAAITWDGGSTYYADSVKGRFTISRDNAKNTVYLQMNSLKPEDTAVYYCADDLYDTYGTFDYWGQGTQVTVSS"
  polyreactivity (PSR sort gate): "low polyreactivity"
- POLYMER_SEQUENCE: "QVQLVESGGGLVQAGGSLRLSCAASGITFRYYAMGWYRQAPGKERELVARITTDGSTHYADSVKGRFTISRDNAKNTVYLQMNSLKPEDTAVYYCNARHRNLAEYDYWGQGTQVTVSS"
  polyreactivity (PSR sort gate): "low polyreactivity"
- POLYMER_SEQUENCE: "QVQLEESGGGLVQAGASLRLSCAASGNIFPRNAMGWYRQAPGKERELVAAISASGDNTYYADSVKGRFTISRDNAKNTVYLQMNSLKPEDTEVYYCAAATFYESIQPYESVAYDYWGQGTQVTVSS"
  polyreactivity (PSR sort gate): "low polyreactivity"
- POLYMER_SEQUENCE: "QVQLVESGGGLVQAGGSLRLSCAASGRTFSHYAMGWYRQAPGKERELVAGISSGSRTNYADSVKGRFTISRDNAKNTVYLQMNSLKPEDTAVYYCAARTKYLKGGYWGQGTQVTVSS"
  polyreactivity (PSR sort gate): "high polyreactivity"
- POLYMER_SEQUENCE: "QVQLVESGGGLVQAGGSLRLSCAASGSTFSYYTMGWYRQAPGKERELVAAISRTGGSTYYADSVKGRFTISRDNAKNTVYLQMNSLKPEDTAVYYCAAKGYVGRYDYWGQGTQVTVSS"
  polyreactivity (PSR sort gate): "high polyreactivity"

The recorded polyreactivity (PSR sort gate) for KVQLVESGGGLVQAGGSLRLSCAASGLTFSVYAMGWYRQAPGKERELVAAITNSGGSTYYADSVKGRFTISRDNAKNTVYLQMNSLIPEDTAVYYCAARYSTYYSGPPGLHLDYYYWGQGTQVTVSS is low polyreactivity

The recorded polyreactivity (PSR sort gate) for QVQLVESGGGLVQAGGSLRLSCAASGLTFVWYGMGRYRQAPGKERELVAAITRGGSTYYADSVKGRFTISRDNAKNTVYLQMNSLKPEDTAVYYCAARRWERRVRPGYYPYDYWGQGTQVTVSS is high polyreactivity
